Reported REVEAL binding score, HLA-type A3 is given for each of the following substances.
Target: HLA-A3 (Homo sapiens, UniProt P04439)
Sequence (P04439 25-299): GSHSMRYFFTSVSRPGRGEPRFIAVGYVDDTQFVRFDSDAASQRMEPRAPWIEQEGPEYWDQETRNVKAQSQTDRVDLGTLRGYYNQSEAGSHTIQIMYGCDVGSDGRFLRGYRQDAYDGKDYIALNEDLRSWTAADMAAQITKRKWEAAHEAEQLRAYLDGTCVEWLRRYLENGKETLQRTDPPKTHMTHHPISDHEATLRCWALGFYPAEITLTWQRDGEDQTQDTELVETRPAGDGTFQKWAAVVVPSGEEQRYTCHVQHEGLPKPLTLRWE
Sequence (P61769 21-119, further chain): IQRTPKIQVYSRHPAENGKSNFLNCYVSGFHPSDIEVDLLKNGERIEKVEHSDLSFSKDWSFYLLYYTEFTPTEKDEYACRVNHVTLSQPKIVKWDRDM
Test: REVEAL binding assay
Conditions: score as percentage of the signal generated by the positive control peptide
Where no end group is shown, it is not given here. [ ]: non-standard residue; d: D form. Cit = NC(=O)NCCC[C@H](N)C(=O)O
Respond with the bare value in %.

Past entries and their recorded results:
| substance | property_label | assay_result |
| --- | --- | --- |
| RNLGKVIDT | REVEAL binding score, HLA-type A3 | 3.15 |
| LGKVIDTLT | REVEAL binding score, HLA-type A3 | 7.39 |
| TGNIPGSTY | REVEAL binding score, HLA-type A3 | 13.04 |
| YATGNLPGC | REVEAL binding score, HLA-type A3 | 3.67 |
| [Cit]IGVRAT[Cit]R | REVEAL binding score, HLA-type A3 | 25.16 |

## Task State its REVEAL binding score, HLA-type A3 on HLA-A3 (Homo sapiens, UniProt P04439): IPLVGAPLG
## Result 2.59

## Task State its REVEAL binding score, HLA-type A3 on HLA-A3 (Homo sapiens, UniProt P04439): VGGVYLLPR
## Result 3.41

## Task State its REVEAL binding score, HLA-type A3 on HLA-A3 (Homo sapiens, UniProt P04439): NIPGSTYSL
## Result 3.98

## Task State its REVEAL binding score, HLA-type A3 on HLA-A3 (Homo sapiens, UniProt P04439): NLGKVIDTL
## Result 6.41

## Task State its REVEAL binding score, HLA-type A3 on HLA-A3 (Homo sapiens, UniProt P04439): GNLPGCSFS
## Result 3.54

## Task State its REVEAL binding score, HLA-type A3 on HLA-A3 (Homo sapiens, UniProt P04439): RVIAHGLRL
## Result 13.32

## Task State its REVEAL binding score, HLA-type A3 on HLA-A3 (Homo sapiens, UniProt P04439): ADLMGYIPL
## Result 1.93

## Task State its REVEAL binding score, HLA-type A3 on HLA-A3 (Homo sapiens, UniProt P04439): NLPGCSFSI
## Result 8.15

## Task State its REVEAL binding score, HLA-type A3 on HLA-A3 (Homo sapiens, UniProt P04439): ATGNLPGCS
## Result 3.64

## Task State its REVEAL binding score, HLA-type A3 on HLA-A3 (Homo sapiens, UniProt P04439): IRVIAHGLR
## Result 3.58

These data points were gathered from patent US9550811B2.
